# ASSAY TEXT: inhibitors of hydroxyurea-induced Chk1 phosphorylation, primary screen, imaging, HeLa, phospho-Chk1 antibody, percent positive cells (AID 1186)
# MEASUREMENT SETUP: hydroxyurea-induced phospho-Chk1 immunofluorescence imaging, higher = more signal
So I've got a bunch of compounds here, and I need their z-score values.
When you answer, write just the number.

What z-score value was documented for this compound, CN1C=C(C(=O)OCCS(C)(=O)=O)C(C(=O)OCCS(C)(=O)=O)=CC(CCCO)=CC1c1ccc(CN2CCCC2)cc1 (centres undefined) ? 0.266

Similarly, CN(C)CCCCNC(=O)[C@H]1C[C@H]2C(=O)NCC(=O)N2[C@H]1c1cccc(OCCO)c1 ? -0.46

Similarly, C=CC[C@]1(C(=O)OC)N=C(c2ccc(OCCCO)cc2)O[C@H]1c1ccccc1N=[N+]=[N-] ? -0.179

Similarly, COc1cc(OC)c(C(O)C2C=CC3C(=O)N(c4ccccc4)C(=O)C3N2Nc2ccccc2F)cc1Br (centres undefined) ? 0.195

Similarly, N#Cc1ccc(C(O)C2C=CC3C(=O)N(c4ccccc4)C(=O)C3N2Nc2ccc([N+](=O)[O-])cc2)cc1 (centres undefined) ? -0.138

Similarly, COC(=O)c1ccc([C@H](NC(=O)c2ccccc2)[C@]2(C)C[C@H]2C2CCCCC2)cc1 ? -0.198

Similarly, COC(=O)[C@@]1(Cc2ccc(OC)cc2)[C@H]2c3cc(C(=O)N4CCCC4)n(CCc4ccc(OC)c(Br)c4)c3C[C@H]2CN1C(=O)c1ccccc1 ? -0.299

Similarly, COCCOC(=O)N1C(=O)[C@@]2(c3cc(C#CC4(O)CCCCCC4)ccc31)[C@H](c1ccccc1OCCO)N1[C@H](c3ccccc3)[C@H](c3ccccc3)OC(=O)[C@H]1[C@@H]2C(=O)N1CCCCCCC1 ? -0.531

Similarly, COC(=O)[C@@]1(Cc2ccc(F)cc2)[C@H]2c3cc(C(=O)N(C)C)n(CCn4cc([N+](=O)[O-])nc4C)c3C[C@H]2CN1C(=O)c1ccccc1 ? 0.581

Similarly, CC(C)CNC(=O)[C@@H]1c2ccccc2C(=O)N(Cc2ccccc2Cl)[C@H]1c1ccc(CO)cc1 ? 0.0107

Similarly, CN1C(=O)C2C(C1=O)C1C=C(c3ccc(CO)cc3)C2C(c2cccs2)N1C (centres undefined) ? -0.89

Similarly, CC(C)CNC(=O)[C@@]1(C)c2ccccc2C(=O)N(Cc2cc(F)cc(C(F)(F)F)c2)[C@H]1c1ccc(CO)cc1 ? -0.143

Similarly, C=CCOC(=O)[C@H]1[C@@H]2C(=O)O[C@@H](c3ccccc3)[C@@H](c3ccccc3)N2[C@@H](c2ccc(OCCOC(=O)[C@@H]3C[C@@H]4C(=O)N[C@@H](CC(C)C)C(=O)N4[C@@H]3c3ccc(O)cc3)cc2)[C@]12C(=O)Nc1ccc(I)cc12 ? -0.654

Similarly, COc1ccc(CCNC(=O)[C@@]2(C)c3ccccc3C(=O)N(Cc3cc(C(F)(F)F)cc(C(F)(F)F)c3)[C@H]2c2ccc(CO)cc2)cc1 ? -0.0741

====

# Tested on: Fibrinogen (Alexa647-labelled)
# ASSAY TEXT: fibrinogen binders on compound microarrays, profiling panel, artefact control for SMM control-protein annotation, biochemical, small-molecule microarray, 635/667 nm fluorescence (AID 1131);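 also: z-score merges 667 nm fluorescence with per-spot signal-to-noise over triplicate slides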
# MEASUREMENT SETUP: fibrinogen-A647 binding fluorescence, higher = more signal
MEASUREMENT KIND: composite z-score

What composite z-score value was documented for this molecule, CCC[C@@H]1C=C(C(=O)OCC)[C@H](c2ccccc2)N1S(=O)(=O)c1ccc(C)cc1 ? 0.979

Similarly, N[C@@H](Cc1ccccc1)Cn1cc(C2(O)CCCCC2)nn1 ? 0.556

Similarly, CC(C)[Si](C#CCCCC#N)(O[C@H](c1ccccc1)c1cn([C@H](C)c2ccccc2)nn1)C(C)C ? 0.464

Similarly, CC#CCO[Si](C#CCCCCCC)(C(C)C)C(C)C ? -1.49

Similarly, CC(C)C(=C=CC[C@@H](O)c1cccc(OCCO)c1)CCO ? 0.236

Similarly, Cc1c(-c2ccc(-c3ccc(Cl)c(Cl)c3)o2)nc(-c2ccccc2)c2c1CO[Si]2(C(C)C)C(C)C ? 0.407

Similarly, CCCCC(=C=CC[C@H](O)c1ccc(OCCO)cc1)C[C@H](O)c1ccccn1 ? 0.963

Similarly, C[C@H]1C2[C@H](Cc3ccccc3)NC(=O)[C@]23C(=O)NCC(=O)N2CCC[C@H]2C(=O)NC/C=C\C/C=C/C3[C@@H]2O[C@]12C (some centres not stated) ? -0.454

Similarly, COCCOC(=O)N1C(=O)[C@@]2(c3cc(C#CCNC(N)=O)ccc31)[C@H](C(=O)NC[C@H](O)c1ccccc1)[C@H]1C(=O)O[C@H](c3ccccc3)[C@H](c3ccccc3)N1[C@@H]2c1ccc(OCCO)cc1 ? 0.884

Similarly, CN(C)CCCCNC(=O)[C@H]1C[C@H]2C(=O)NCC(=O)N2[C@H]1c1cccc(OCCO)c1 ? -1.59

Similarly, CC(C)CNC(=O)[C@@]1(C)c2ccccc2C(=O)N(Cc2cc(F)cc(C(F)(F)F)c2)[C@H]1c1ccc(CO)cc1 ? 0.51

Similarly, COC(=O)[C@@]1(Cc2ccccc2)[C@@H]2[C@@H](CC(=O)[C@H]2CC(=O)C(=O)N(C)C)CN1C(=O)c1ccccc1 ? 0.601

Similarly, CC(C)C[C@@H]1NC(=O)[C@@H]2C[C@H](C(=O)NCCCC[N+](C)(C)C)[C@H](c3ccc(O)cc3)N2C1=O ? 0.354

Similarly, CN(C)CCCC[C@@H]1NC(=O)[C@H]2C[C@@H](C(=O)NCc3ccc(F)cc3)[C@@H](c3ccc(O)cc3)N2C1=O ? 0.563

Similarly, Cc1ccc(F)cc1S(=O)(=O)N[C@@H]1CCN(Cc2ccc3c(c2)OCO3)C1 ? 0.125

Similarly, CCC(CC)C(O)C1C=CC2C(=O)N(C)C(=O)C2N1N1CCCCC1 (configuration not stated) ? 0.967

Similarly, CCOC(=O)C1=CC[C@@H](c2ccccc2)N(S(=O)(=O)C[Si](C)(C)C)[C@H]1c1ccccc1 ? 0.996

Similarly, CCOC(=O)C1=CC[C@@H](c2ccccc2)N(S(=O)(=O)c2ccc(C)cc2)[C@H]1C#N ? 0.986

Similarly, Cc1ccc(S[C@]2(C(=O)NC3CC3)CC(=O)N(Cc3cc(C(F)(F)F)cc(C(F)(F)F)c3)[C@@H]2c2ccc(CO)cc2I)cc1 ? 0.103

Similarly, O=c1cccc(-c2ccccc2C(F)(F)F)o1 ? -2.29

Similarly, CCOC(=O)C1=CC[C@@H](c2ccc(F)cc2)N(S(=O)(=O)c2ccc(C)cc2)[C@H]1c1ccc([N+](=O)[O-])cc1 ? 0.954

Similarly, COc1cc(OC)c(C(O)C2C=CC3C(=O)N(c4ccccc4)C(=O)C3N2Nc2ccccc2F)cc1Br (configuration not stated) ? 1.01

Similarly, CCCCCN1CC=CC23O[C@@H]4C=CCOC(=O)[C@@H]4[C@H]2C(=O)N(CCCCCO)[C@@H]3C1=O (some centres not stated) ? -1.87

Similarly, C/C=C/CN(C(=O)C#Cc1ccccc1)[C@H](CO[Si](C)(C)C(C)(C)C)c1ccccc1 ? -2.12

Similarly, C[C@]1(C(=O)NCC(F)(F)F)c2ccccc2C(=O)N(Cc2ccc(OC(F)(F)F)cc2)[C@H]1c1ccc(CO)cc1 ? 0.0709

Similarly, CCCCN1CC=CC23O[C@@H]4/C=C\CCC(C)OC(=O)C4[C@H]2C(=O)N(C(C)CO)[C@@H]3C1=O (some centres not stated) ? -0.526

Similarly, O=C(NCCO)C1=C[C@H](Oc2ccccc2I)[C@@H](O)[C@H](NCc2ccc(F)cc2)C1 ? -2.27

Similarly, CC1(C)OC[C@@]23C=C(Br)[C@@H](C[C@H]12)[C@@]1(CO1)C3=O ? 0.149

Similarly, CCOC(=O)C1=C[C@@H](C(C)(C)C)N(S(=O)(=O)c2ccc(C)cc2)[C@H]1c1ccccc1Cl ? 0.776

Similarly, C=CCC(OC(C)=O)[C@@H]1[C@@H](N(Cc2cc3ccccc3o2)C(=O)Cc2ccc(OC)cc2)c2cc(OCCCO)ccc2N1C(=O)Cc1ccc(OC)cc1 (some centres not stated) ? 0.712

Similarly, C=CCNC(=O)[C@@H]1[C@H]2C(=O)O[C@H](c3ccccc3)[C@H](c3ccccc3)N2[C@H](c2ccccc2OCCO)[C@@]12C(=O)N(C(=O)OCCOC)c1ccc(C#CCCO)cc12 ? 0.414

Similarly, [N-]=[N+]=NCc1ccccc1[C@@H]1OC(c2ccc(OCCCO)cc2)=N[C@]1(Cc1ccccc1)C(=O)NCc1ccccc1 ? 0.734

====

# ASSAY TEXT: P. aeruginosa biofilm formation inhibitors, primary screen, PAO1 strain, BacTiter-Glo luminescence, LB-PBS (AID 1144)
# MEASUREMENT SETUP: 12 h, higher = more signal
// Condition not met strictly below 0.1 in z-score; Condition met otherwise

Check the entry C=CCC(OC(C)=O)[C@@H]1[C@@H](N(Cc2ccc(-c3ccccc3)cc2)C(=O)c2cccc3ccccc23)c2cc(OCCCO)ccc2N1C(=O)c1ccc2ccccc2c1 (stereo partly drawn) : does z-score equal or exceed 0.1? Condition met

Similarly, COC(=O)[C@H](Cc1ccc(O)cc1)N1CC2=CCCC=C[C@@H]2[C@H]1[C@H](O)Cc1ccccc1 ? Condition not met

Similarly, C=CCC(OC(C)=O)[C@@H]1[C@@H](N(Cc2ccc(-c3ccccc3)cc2)C(=O)c2ccc(C)cc2)c2cc(OCCCO)ccc2N1C(=O)c1ccc2ccccc2c1 (stereo partly drawn) ? Condition met

Similarly, CCCCN1CC=CC23O[C@@H]4C=CCOC(=O)[C@@H]4[C@H]2C(=O)N(CCO)[C@@H]3C1=O (stereo partly drawn) ? Condition met

Similarly, O=c1cccc(-c2ccccc2C(F)(F)F)o1 ? Condition not met

Similarly, O=C1NC(=O)C2C1C=CC(C(O)c1cccc(O)c1)N2Nc1ccc(Cl)cc1Cl (stereo not drawn) ? Condition not met

Similarly, CO[C@H]1O[C@H](CO)[C@@H](OC(=O)Nc2ccc(C(F)(F)F)cc2)[C@H](OC(=O)Nc2ccccc2-c2ccccc2)[C@H]1OC(=O)Nc1ccccc1-c1ccccc1 ? Condition met

Similarly, COC(=O)[C@@H]1N=C(c2ccc(OCCCO)cc2)O[C@@H]1c1ccccc1CN=[N+]=[N-] ? Condition not met
